Data origin, for the record: patent US20250313539A1

measurement.protocol: pharmacokinetic parameters in mice (plasma, LC-MS/MS)
Type: in vivo, Male ICR (CD-1) mice
test.settings: male, ICR (CD-1), mouse, po-20 mg/kg
parameter: AUC(0-inf) (ng·h/mL)
Answer format: numeric, ng·h/mL implied, no suffix.

// query Any idea what its AUC(0-inf) is? The molecule is O=C(/C=C/c1ccccc1C(F)(F)F)N1C(=O)OC[C@@H]1c1ccccc1
// result 650

====

measurement.protocol: drug concentration in brain tissue, plasma and CSF after oral administration in mice
Assay type: in vivo
test.settings: ICR (CD-1), mouse, po, 20 mg/kg, PO 20 mg/kg, 15 min, mean; read-out: CSF
parameter: concentration at 15 min
Write the numeric value and append its unit.

// query Data request, read-out concentration at 15 min, for O=C(/C=C/c1ccccc1C(F)(F)F)N1C(=O)OC[C@@H]1c1ccccc1
// result 3.8 ng/mL
